assay: Solubility vs. pH; assay type: physicochemical; settings: 0.15 M aqueous sodium chloride, saline or isotonic, thermodynamic from solid; pH 3.8; 0.15M sodium chloride (aqueous); read-out: Solubility, Concentration
endpoint: solubility at 2 h

Reported solubility at 2 h of CCOc1ccc(-c2ccc(Cn3c(CC(C)(C)C(=O)[O-])c(SC(C)(C)C)c4cc(OCc5ccc(C)cn5)ccc43)cc2)cn1.[Na+] [Compound 2] : < 0.1 µg/mL

---

test: Single dose kinetics in beagle dogs; format: in vivo; settings: female, dog, plasma, IV, 4:1 PEG400:Water, 0.67 mg/kg, Fasted, read-out: CLp
endpoint: clearance (mL/min/kg)
Give just the numeric value; mL/min/kg need not be written.

Reported clearance of `CCOc1ccc(-c2ccc(Cn3c(CC(C)(C)C(=O)[O-])c(SC(C)(C)C)c4cc(OCc5ccc(C)cn5)ccc43)cc2)cn1.[Na+]` : 0.6

---

assay: Solubility vs. pH; format: physicochemical; conditions: 0.15 M aqueous sodium chloride, saline or isotonic, thermodynamic from solid; pH 11.2; 0.15M sodium chloride (aqueous); read-out: Solubility, Concentration
endpoint: solubility at 2 h

Reported solubility at 2 h of `CCOc1ccc(-c2ccc(Cn3c(CC(C)(C)C(=O)[O-])c(SC(C)(C)C)c4cc(OCc5ccc(C)cn5)ccc43)cc2)cn1.[Na+]` : > 10000 µg/mL

---

test: Single dose kinetics in beagle dogs; assay type: in vivo; conditions: female, dog, plasma, IV, 4:1 PEG400:Water, 0.67 mg/kg, Fasted
endpoint: bioavailability (%)
Give just the numeric value; % need not be written.

Reported bioavailability of CCOc1ccc(-c2ccc(Cn3c(CC(C)(C)C(=O)[O-])c(SC(C)(C)C)c4cc(OCc5ccc(C)cn5)ccc43)cc2)cn1.[Na+] [Compound 2] : 100

---

test: Solubility vs. pH; assay type: physicochemical; conditions: 0.15 M aqueous sodium chloride, saline or isotonic, thermodynamic from solid; pH 9.0; 0.15M sodium chloride (aqueous); read-out: Solubility, Concentration
endpoint: solubility at 2 h (µg/mL)
Give just the numeric value; µg/mL need not be written.

Reported solubility at 2 h of CCOc1ccc(-c2ccc(Cn3c(CC(C)(C)C(=O)[O-])c(SC(C)(C)C)c4cc(OCc5ccc(C)cn5)ccc43)cc2)cn1.[Na+] [Compound 2] : 3500

---

assay: Single dose kinetics in beagle dogs; type: in vivo; conditions: female, dog, plasma, IV, 4:1 PEG400:Water, 0.67 mg/kg, Fasted, read-out: VdSS
endpoint: Vd (L/kg)
Give just the numeric value; L/kg need not be written.

Reported Vd of `CCOc1ccc(-c2ccc(Cn3c(CC(C)(C)C(=O)[O-])c(SC(C)(C)C)c4cc(OCc5ccc(C)cn5)ccc43)cc2)cn1.[Na+]` : 0.2

---

target: CYP 2D6 (Homo sapiens); construct: microsomes were incubated test substrates, which were known to be metabolized by CYP enzymes, with or without Compound 2; assay: Extracellular Cytochrome P450 inhibition, 2D6; conditions: dextromethorphan O-demethylation
Sequence (P10635 whole entry): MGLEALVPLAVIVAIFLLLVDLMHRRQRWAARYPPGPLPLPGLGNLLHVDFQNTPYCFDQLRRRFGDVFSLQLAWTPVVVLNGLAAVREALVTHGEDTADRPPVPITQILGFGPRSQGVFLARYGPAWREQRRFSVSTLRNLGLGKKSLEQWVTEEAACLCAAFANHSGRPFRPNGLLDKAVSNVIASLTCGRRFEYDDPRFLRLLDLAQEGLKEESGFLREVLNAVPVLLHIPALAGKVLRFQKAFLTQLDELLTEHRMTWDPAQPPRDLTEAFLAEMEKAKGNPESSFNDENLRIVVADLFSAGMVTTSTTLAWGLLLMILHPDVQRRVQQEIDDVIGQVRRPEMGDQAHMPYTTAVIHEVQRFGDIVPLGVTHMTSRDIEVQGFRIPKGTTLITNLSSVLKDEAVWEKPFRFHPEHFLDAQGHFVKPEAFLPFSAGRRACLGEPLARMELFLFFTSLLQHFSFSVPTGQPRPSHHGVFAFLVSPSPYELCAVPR
endpoint: IC50

Reported IC50 of `CCOc1ccc(-c2ccc(Cn3c(CC(C)(C)C(=O)[O-])c(SC(C)(C)C)c4cc(OCc5ccc(C)cn5)ccc43)cc2)cn1.[Na+]` : > 50 µM

---

assay: Single dose kinetics in beagle dogs; assay type: in vivo; conditions: female, dog, plasma, IV, 4:1 PEG400:Water, 0.67 mg/kg, Fasted
endpoint: Tmax (min)
Give just the numeric value; min need not be written.

Reported Tmax of `CCOc1ccc(-c2ccc(Cn3c(CC(C)(C)C(=O)[O-])c(SC(C)(C)C)c4cc(OCc5ccc(C)cn5)ccc43)cc2)cn1.[Na+]` : 1.02

Origin of measurements: patent US20110160249A1
